Biological target: P-selectin/PSGL-1 interaction (Homo sapiens, UniProt P16109)
Construct: comprised of the lectin and epidermal growth factor-like (EGF) domains expressed in CHO cells; made in house; host or cells: CHO cells (P-LE)
Sequence (P16109 42-198): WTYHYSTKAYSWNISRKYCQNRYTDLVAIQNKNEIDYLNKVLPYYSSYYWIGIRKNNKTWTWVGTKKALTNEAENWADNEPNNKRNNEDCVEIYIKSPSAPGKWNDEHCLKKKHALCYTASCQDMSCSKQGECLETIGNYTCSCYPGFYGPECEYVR
Experiment: Biacore P-Selectin/PSGL-1 Inhibition Assay (surface plasmon resonance)
Assay type: binding
Conditions: 250 uM test compound, 500 nM P.LE, immobilized PSGL-1 19ek, 10% DMSO, pH 7.4
Test Readout: inhibition at 250 µM (%)

Reference set (5 entries):
Requested field: inhibition at 250 µM. Item: Cc1ccc2c(C(=O)O)c(O)c(C(c3ccccc3)C(C)C)nc2c1C (centres unmarked) [Compound 131]
90

Requested field: inhibition at 250 µM. Item: CC(C)c1cccc2c(C(=O)O)c(O)c(C(C)Cc3ccccc3)nc12 (centres unmarked) [Compound 133]
64

Requested field: inhibition at 250 µM. Item: CC(C)c1cccc2c(C(=O)O)c(O)c(C3(c4ccc(C(F)(F)F)cc4)CC3)nc12 [Compound 88]
34

Requested field: inhibition at 250 µM. Item: CC(C)c1ccc2nc(C3(c4ccc(Cl)cc4)CC3)c(O)c(C(=O)O)c2c1 [Compound 25]
14

Requested field: inhibition at 250 µM. Item: O=C(O)c1c(O)c(C2(c3ccc(F)cc3)CC2)nc2c(C(F)(F)F)cccc12 [Compound 61]
56

A: O=C(O)c1c(O)c(C2(c3ccccc3)CC2)nc2c(C(F)(F)F)cc(C(F)(F)F)cc12 [Compound 106]
B: CC(C)c1cccc2c(C(=O)O)c(O)c(C(C)(C)c3ccccc3)nc12 [Compound 116]
C: O=C(O)c1c(O)c(C2(c3ccccc3)CC2)nc2c(C3CC3)cccc12 [Compound 110]
List from greatest to least inhibition at 250 µM. Your task in answering is to list the labels in the requested order.
B, A, C
(B: 68%, A: 41%, C: 13%)

1: O=C(O)c1c(O)c(C2(c3ccccc3)CC2)nc2c3c(ccc12)CCCC3 [Compound 42]
2: Cc1ccc(C2(c3nc4c(C)cc(C)cc4c(C(=O)O)c3O)CC2)cc1 [Compound 84]
Compare 1 and 2 by numeric inhibition at 250 µM and name the larger one. Refer to your chosen item by its label in the answer.
1

---

Molecular target: P-selectin/PSGL-1 interaction (Homo sapiens)
Construct: comprised of the lectin and epidermal growth factor-like (EGF) domains expressed in CHO cells; made in house; host or cells: CHO cells (P-LE)
Assay: Biacore P-Selectin/PSGL-1 Inhibition Assay (surface plasmon resonance)
Format: binding
Details: 250 uM test compound, 500 nM P.LE, immobilized PSGL-1 19ek, 10% DMSO, pH 7.4
Test Readout: inhibition at 250 µM (%)

Requested field: inhibition at 250 µM. Item: O=C(O)c1c(O)c(C2(c3ccccc3)CC2)nc2c(-c3ccsc3)cccc12 [Compound 35]
70

A: Cc1ccc(C2(c3nc4c(C)cccc4c(C(=O)O)c3O)CC2)cc1 [Compound 83]
B: CCC(C)c1cccc2c(C(=O)O)c(O)c(C3(c4ccc(Cl)cc4)CC3)nc12 (centres unmarked) [Compound 3]
Compare A and B by numeric inhibition at 250 µM and name the larger one. Refer to your chosen item by its label in the answer.
B

---

Target: P-selectin/PSGL-1 interaction (Homo sapiens, UniProt P16109)
Construct: comprised of the lectin and epidermal growth factor-like (EGF) domains expressed in CHO cells; made in house; host or cells: CHO cells (P-LE)
Sequence (P16109 42-198): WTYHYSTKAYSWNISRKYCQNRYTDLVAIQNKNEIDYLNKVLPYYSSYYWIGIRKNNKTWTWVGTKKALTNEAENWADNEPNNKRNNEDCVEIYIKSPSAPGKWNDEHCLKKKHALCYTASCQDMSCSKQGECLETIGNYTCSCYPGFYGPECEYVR
Assay: Biacore P-Selectin/PSGL-1 Inhibition Assay (surface plasmon resonance)
Type: binding
Details: 250 uM test compound, 500 nM P.LE, immobilized PSGL-1 19ek, 10% DMSO, pH 7.4
Test Readout: inhibition at 250 µM (%)

Reference set (3 entries):
Requested field: inhibition at 250 µM. Item: O=C(O)c1c(O)c(C2(c3ccc(Br)cc3)CC2)nc2c(C(F)(F)F)cccc12
64

Requested field: inhibition at 250 µM. Item: Cc1cc(C)c2nc(C3(c4ccccc4)CC3)c(O)c(C(=O)O)c2c1
20

Requested field: inhibition at 250 µM. Item: CC(C)c1cccc2c(C(=O)O)c(O)c(C3(c4ccc(F)cc4)CC3)nc12
67

1: O=C(O)c1c(O)c(C2(c3ccc(F)cc3)CC2)nc2c3c(ccc12)CCCC3
2: O=C(O)c1c(O)c(C2(c3ccc(F)cc3)CC2)nc2ccc(Br)cc12
Compare 1 and 2 by numeric inhibition at 250 µM and name the larger one. Refer to your chosen item by its label in the answer.
1

I: CC(Cc1nc2c(C(F)(F)F)cccc2c(C(=O)O)c1O)c1ccccc1 (stereo not shown)
II: Cc1ccc(C2(c3nc4c(C)c(C)ccc4c(C(=O)O)c3O)CC2)cc1
Param metric = inhibition at 250 µM; output whichever of I , II has the minimum value. Refer to your chosen item by its label in the answer.
II

---

Molecular target: P-selectin/PSGL-1 interaction (Homo sapiens, UniProt P16109)
Construct: comprised of the lectin and epidermal growth factor-like (EGF) domains expressed in CHO cells; made in house; host or cells: CHO cells (P-LE)
Assay: Biacore P-Selectin/PSGL-1 Inhibition Assay (surface plasmon resonance)
Assay type: binding
Settings: 250 uM test compound, 500 nM P.LE, immobilized PSGL-1 19ek, 10% DMSO, pH 7.4
Test Readout: inhibition at 250 µM (%)

Reference set (10 entries):
Requested field: inhibition at 250 µM. Item: O=C(O)c1c(O)c(C2(c3ccc(F)cc3)CC2)nc2c(C(O)(C(F)(F)F)C(F)(F)F)cccc12 [Compound 76]
43

Requested field: inhibition at 250 µM. Item: O=C(O)c1c(O)c(C2(c3ccc(OC(F)(F)F)cc3)CC2)nc2c(C(F)(F)F)cccc12 [Compound 56]
29

Requested field: inhibition at 250 µM. Item: O=C(O)c1c(O)c(C2(c3ccc(C(F)(F)F)cc3)CC2)nc2ccc(OC(F)(F)F)cc12 [Compound 90]
47

Requested field: inhibition at 250 µM. Item: O=C(O)c1c(O)c(C2(c3ccccc3)CC2)nc2c(C(F)(F)F)cc(Br)cc12 [Compound 107]
41

Requested field: inhibition at 250 µM. Item: CC(C)c1cccc2c(C(=O)O)c(O)c(C3(c4ccc(Cl)cc4)CC3)nc12 [Compound 39]
66

Requested field: inhibition at 250 µM. Item: O=C(O)c1c(O)c(C2(c3ccc(F)cc3)CC2)nc2c(-c3ccccc3)cccc12 [Compound 77]
37

Requested field: inhibition at 250 µM. Item: O=C(O)c1c(O)c(C2(c3ccccc3)CC2)nc2ccc(OC(F)(F)F)cc12 [Compound 29]
10

Requested field: inhibition at 250 µM. Item: CCc1cc(C(F)(F)F)c2nc(C3(c4ccccc4)CC3)c(O)c(C(=O)O)c2c1 [Compound 104]
40

Requested field: inhibition at 250 µM. Item: CC(c1ccccc1)c1nc2c3c(ccc2c(C(=O)O)c1O)CCCC3 (centres unmarked) [Compound 125]
90

Requested field: inhibition at 250 µM. Item: CC(C)(c1ccccc1)c1nc2c3c(ccc2c(C(=O)O)c1O)CCCC3 [Compound 114]
69

a: O=C(O)c1c(O)c(C2(c3ccc(Cl)cc3)CC2)nc2c(-c3ccsc3)cccc12 [Compound 37]
b: O=C(O)c1c(O)c(C2(c3ccc(F)cc3)CC2)nc2cc(Br)ccc12 [Compound 74]
Compare a and b by numeric inhibition at 250 µM and name the larger one. Refer to your chosen item by its label in the answer.
a

---

Target: P-selectin/PSGL-1 interaction (Homo sapiens)
Construct: comprised of the lectin and epidermal growth factor-like (EGF) domains expressed in CHO cells; made in house; host or cells: CHO cells (P-LE)
Test: Biacore P-Selectin/PSGL-1 Inhibition Assay (surface plasmon resonance)
Assay type: binding
Conditions: 250 uM test compound, 500 nM P.LE, immobilized PSGL-1 19ek, 10% DMSO, pH 7.4
Test Readout: inhibition at 250 µM (%)

I: CCc1ccc2nc(C3(c4ccc(F)cc4)CC3)c(O)c(C(=O)O)c2c1 [Compound 70]
II: Cc1cc(C(F)(F)F)c2nc(C3(c4ccccc4)CC3)c(O)c(C(=O)O)c2c1 [Compound 101]
Compare I and II by numeric inhibition at 250 µM and name the larger one. Refer to your chosen item by its label in the answer.
II
